Data origin: ChEMBL document CHEMBL5233211

assay: Induction of mouse splenocytes proliferation at 100 nM; format: functional, Splenocyte
observable: Activity (%)
Report the value in % with no unit label.

Answered cases to consult:
In [3]: df
Out[3]:
                                   molecule  measurement
0  C[C@@H](O)[C@H](N)c1noc([C@H](Cc2ccc(O)cc2)NC(=O)N2CCC[C@H]2C(=O)O)n1           99
1  N[C@@H](Cc1ccc(O)cc1)c1noc([C@@H]2CCCN2C(=O)N[C@@H](Cc2ccc(O)cc2)C(=O)O)n1           91
2  CC(O)[C@H](NC(=O)N[C@@H](CCC(N)=O)c1nnc([C@@H](N)C(C)O)o1)C(=O)O (stereo not given in full)           97
3  CCN(Cc1ccccc1)C(=O)N[C@@H](CC(N)=O)c1nc([C@@H](N)CO)no1           92

// next entry
Per the record, C[C@H](O)[C@H](NC(=O)N[C@@H](Cc1ccccc1)c1nc([C@@H](N)CO)no1)C(=O)O has Activity of 92
